# Test system: chickweed (common chickweed, Stellaria media)
# RUN_DESCRIPTION: Test D controlled growth environment herbicide test, pre- and postemergence
# Format: in vivo
# EXPERIMENTAL_PARAMETERS: Postemergence, 31 g ai/ha; scale 0 to 100 (0 no effect, 100 complete control)
RECORDED_ENDPOINT: Chickweed plant response rating
Numbers only.

Worked cases, answers included:
1. Cc1ccc2sc(Br)c(-c3c(O)c(C)nn(C)c3=O)c2c1 [Compound 79]
95
2. Cc1nn(C)c(=O)c(-c2ccc(Br)c3ccccc23)c1O [Compound 75]
100
3. Cc1nn(C)c(=O)c(-c2c(C)sc3c(C)cc(Cl)cc23)c1O [Compound 35]
90

Please give Chickweed plant response rating, item by item, for the list that follows.
1. Cc1nn(C)c(=O)c(-c2cccc3ccc(Br)cc23)c1O [Compound 126]
2. Cn1nc(Br)c(O)c(-c2cccc3ccccc23)c1=O [Compound 20]
3. Cc1cc(C)c2sc(C)c(-c3c(O)c(C)nn(C)c3=O)c2c1 [Compound 2]
4. Cc1nn(C)c(=O)c(-c2c(C)sc3ccc(Br)cc23)c1O [Compound 22]

RESULT:
80
90
85
85

---

# Tested on: lambsquarters (Chenopodium album)
# RUN_DESCRIPTION: Test D controlled growth environment herbicide test, pre- and postemergence
# Format: in vivo
# EXPERIMENTAL_PARAMETERS: Preemergence, 31 g ai/ha
Parameter threshold = 40. Response is rule met when Plant response rating (scale of 0 to 100), Lambsquarters meets or exceeds it, else rule not met.

Answered examples (5):
1) Cc1nn(C)c(=O)c(-c2c(C)sc3ccc(Br)cc23)c1O
rule met
2) Cc1nn(C)c(=O)c(-c2cccc3ccccc23)c1O
rule not met
3) Cc1ccc2sc(Br)c(-c3c(O)c(C)nn(C)c3=O)c2c1
rule met
4) Cc1ccc2ccccc2c1-c1c(OC(=O)OC(C)C)c(C)nn(C)c1=O
rule not met
5) Cc1ccc2sc(C)c(-c3c(OC(=O)OC(C)C)c(C)nn(C)c3=O)c2c1
rule met

Please find the next compound below.
QUERY: In plain terms: is recorded Plant response rating (scale of 0 to 100), Lambsquarters at least 40 for "Cc1nn(C)c(=O)c(-c2ccc(Br)c3ccccc23)c1O" ?
RESULT: rule met

---

So I've got a bunch of molecules here, and I need their Ryegrass, Italian plant response rating values.
# Tested on: ryegrass, Italian (Italian ryegrass, Lolium multiflorum)
# RUN_DESCRIPTION: Test A greenhouse herbicide test, pre- and postemergence
# Type: in vivo
# EXPERIMENTAL_PARAMETERS: Postemergence, 500 g ai/ha; 0 to 100 scale, 0 is no effect, 100 is complete control
Answers are plain numbers.

Worked cases, answers included:
1) Cc1ccc2sc(C)c(-c3c(OC(=O)C(C)(C)C)c(C)nn(C)c3=O)c2c1
90
2) Cc1ccc2ccccc2c1-c1c(O)c(Br)nn(C)c1=O
100
3) Cc1nn(C)c(=O)c(-c2ccc(F)c3ccccc23)c1O
100

Please give Ryegrass, Italian plant response rating, item by item, for the list that follows.
1. CCc1sc2ccc(C)cc2c1-c1c(O)c(C)nn(C)c1=O
2. Cc1nn(C)c(=O)c(-c2c(C)n(C)c3ccc(Cl)cc23)c1O
3. Cc1sc2ccccc2c1-c1c(O)c(Cl)nn(C)c1=O
4. Cc1nn(C)c(=O)c(-c2cccc3ccc(I)cc23)c1O
5. Cn1ncc(O)c(-c2cccc3ccccc23)c1=O
6. CCOc1ccc2oc(CC)c(-c3c(O)c(C)nn(C)c3=O)c2c1

RESULT:
1. 80
2. 0
3. 90
4. 80
5. 50
6. 0

Please give Ryegrass, Italian plant response rating, item by item, for the list that follows.
1. COC(=O)Oc1c(C)nn(C)c(=O)c1-c1c(C)sc2ccc(C)cc12
2. COC(=O)Oc1c(C)nn(C)c(=O)c1-c1ccc(Cl)c2ccccc12
3. CCC(=O)Oc1c(C)nn(C)c(=O)c1-c1ccc(Cl)c2ccccc12

RESULT:
90
100
100
